# Test system: HEK-293T
# protocol_details: Multiplex assay against HEK293T
# Assay type: toxicity, cell-based
# assay_context: human, 48 h, 10 µM, compound concentration 10 uM, replicate 1
Reported Population Fragmented Nuclei (%) values follow for various compounds

Sample answers from the record:
CN(C)C(=O)N[C@H]1CC[C@H](CCN2CCN(c3cccc(Cl)c3Cl)CC2)CC1.Cl [CARIPRAZINE HYDROCHLORIDE]	16%
C=CC(=O)Nc1cccc(C(=O)Nc2ccc(Nc3cc(-c4[nH]c(SC)nc4C)ccn3)cc2)c1	15%
CNc1nc(NCc2ccc(NS(C)(=O)=O)cc2Cl)cc(-c2ccccn2)n1	15%

Alright, here's another compound for you.
Form: Entry = "Cn1cc(-c2[nH]c3cc(NC(=O)[C@H](N)C4CCCCC4)cc4c3c2C=NNC4=O)cn1" | System = HEK-293T | Population Fragmented Nuclei (%) = ____
20%

Data provenance: ChEMBL document CHEMBL4689842
